This collection of values is drawn from patent US20240239790A1.

# Tested on: pH2AX induction in HCT116 ATM-/- multicellular tumour spheroids
# assay-explanation: Prodrug Radiation Sensitization in Multicellular Tumour Spheroids, inhibition of pH2AX induction following radiation
# Type: cell-based
# conditions-used: Homo sapiens, HCT-116, 20 Gy, 5% O2, inner layers, read-out: Prodrug 5% O2 Inner layers EC50
Recorded EC50 for the following compounds

[
  {
    "compound": "CC(c1cnc([N+](=O)[O-])n1C)N(c1cnc2cc(N3CCOCC3)nc(OC3CCC(Nc4ncc(N5CCN(CC(F)F)CC5)cn4)CC3)c2c1)S(C)(=O)=O (stereo not drawn) [LFA2047]",
    "measured-target": "pH2AX induction in HCT116 ATM-/- multicellular tumour spheroids",
    "EC50": "0.01 to 0.5 µM"
  },
  {
    "compound": "Cn1c(CN(c2cnc3cc(N4CCOCC4)nc(O[C@H]4CC[C@@H](Nc5nccnc5C#N)CC4)c3c2)S(C)(=O)=O)cnc1[N+](=O)[O-] [LFA2102]",
    "measured-target": "pH2AX induction in HCT116 ATM-/- multicellular tumour spheroids",
    "EC50": "0.01 to 0.5 µM"
  },
  {
    "compound": "CC(c1cnc([N+](=O)[O-])n1C)N(c1cnc2cc(N3CCOCC3)nc(O[C@H]3CC[C@@H](Nc4ncc(OC5CCN(C)C5)cn4)CC3)c2c1)S(C)(=O)=O (stereo partly drawn) [LFA2068]",
    "measured-target": "pH2AX induction in HCT116 ATM-/- multicellular tumour spheroids",
    "EC50": "0.5 to 1 µM"
  }
]
